meta.source: ChEMBL document CHEMBL1121496

- Species on record: Rattus norvegicus
- ASSAY_DETAILS: Rate of O-Dealkylation by liver microsomes in rats induced with 3-MC; Rates are expressed as pmol of product per 30 min per mg of protein
- Assay type: functional
As shown below, each of these compounds has a reported Rate (pmol/30 min/mg protein) value.
In your answer, state the number alone without any accompanying words.

Below, each entry is followed by its recorded Rate (pmol/30 min/mg protein) result.
CCOc1ccc2ccc3c(OCC)c4ccccc4c4ccc1c2c34 : 3360
COc1ccc([N+](=O)[O-])cc1 : 229000
COc1ccc2ccc3c4ccccc4c(OC)c4ccc1c2c43 : 1250

Consider the additional compound presented here.
Query: // returns reported Rate (pmol/30 min/mg protein) for input CCCOc1ccc2ccc3c(OCCC)c4ccccc4c4ccc1c2c34
Result: 818
